From: ChEMBL document CHEMBL1137334

Assay: Volume of distribution in male dog
Format: ADME, organism-based, Canis lupus familiaris
Conditions: male, in vivo, read-out: Vdss
Kindly supply the reported Vd values for the records listed here.
One number for each entry, in L/kg.

Clc1ccc2c(c1Nc1ncnc3cc(OCCCN4CCCC4)cc(OC4CCOCC4)c13)OCO2    38

// switching to the query compound
// Vd lookup, compound = CN1CCN(CCOc2cc(OC3CCOCC3)c3c(Nc4c(Cl)ccc5c4OCO5)ncnc3c2)CC1 [SARACATINIB] , result: 11.6

* * *

Test: Clearance in female rat at 25 mg/kg, po and 2 mg/kg, iv
Format: ADME, organism-based
Details: in vivo
Quantity Measured: clearance
Write the numeric value and follow it with the unit.

// clearance lookup, compound = CN1CCN(CCOc2cc(OC3CCOCC3)c3c(Nc4c(Cl)ccc5c4OCO5)ncnc3c2)CC1 [SARACATINIB] , result: 16.7 mL/min/kg

* * *

Kindly supply the reported solubility values for the records listed here.
Experiment: Aqueous solubility at pH 7.4
Format: physicochemical

COc1cc(OC2CCN(C)CC2)c2c(Nc3c(Cl)ccc4c3OCO4)ncnc2c1    > 1000 µM

Quick one: give me solubility for each item below, same order please.
1. Clc1ccc2c(c1Nc1ncnc3cc(OCCc4ccncc4)cc(OC4CCOCC4)c13)OCO2
2. CC(C)Oc1cc(OCCN2CCOCC2)cc2ncnc(Nc3c(Cl)ccc4c3OCO4)c12
3. COc1ccc(Cl)c(Nc2ncnc3cc(OCC4CCN(C)CC4)c(OC)cc23)c1
4. Clc1ccc2c(c1Nc1ncnc3cc(OCCCN4CCCC4)cc(OC4CCOCC4)c13)OCO2

1. 1.5 µM
2. 2 µM
3. 324 µM
4. 1000 µM

* * *

Target: UniProtKB P24941
Quantity Measured: pIC50
Numbers only, as −log10 of the molar value.

// pIC50 lookup, compound = CN1CCN(CCOc2cc(OC3CCOCC3)c3c(Nc4c(Cl)ccc5c4OCO5)ncnc3c2)CC1 [SARACATINIB] , result: 5.00

* * *

Assay: Dissociation constant, pKa of the basic side chain of compound
Assay type: physicochemical
Kindly supply the reported pKa values for the records listed here.
Give bare numbers.

COc1cc(OC2CCN(C)CC2)c2c(Nc3c(Cl)ccc4c3OCO4)ncnc2c1    8.2
CC(C)Oc1cc(OCCN2CCOCC2)cc2ncnc(Nc3c(Cl)ccc4c3OCO4)c12    6.5
COc1ccc(Cl)c(Nc2ncnc3cc(OCC4CCN(C)CC4)c(OC)cc23)c1    9
Clc1ccc2c(c1Nc1ncnc3cc(OCCc4ccncc4)cc(OC4CCOCC4)c13)OCO2    6.4
Clc1ccc2c(c1Nc1ncnc3cc(OCCCN4CCCC4)cc(OC4CCOCC4)c13)OCO2    9.5

// switching to the query molecule
// pKa lookup, molecule = CN1CCN(CCOc2cc(OC3CCOCC3)c3c(Nc4c(Cl)ccc5c4OCO5)ncnc3c2)CC1 , result: 7.98

* * *

Molecular target: Vascular endothelial growth factor receptor 1 (Homo sapiens)
Sequence (P17948 whole entry): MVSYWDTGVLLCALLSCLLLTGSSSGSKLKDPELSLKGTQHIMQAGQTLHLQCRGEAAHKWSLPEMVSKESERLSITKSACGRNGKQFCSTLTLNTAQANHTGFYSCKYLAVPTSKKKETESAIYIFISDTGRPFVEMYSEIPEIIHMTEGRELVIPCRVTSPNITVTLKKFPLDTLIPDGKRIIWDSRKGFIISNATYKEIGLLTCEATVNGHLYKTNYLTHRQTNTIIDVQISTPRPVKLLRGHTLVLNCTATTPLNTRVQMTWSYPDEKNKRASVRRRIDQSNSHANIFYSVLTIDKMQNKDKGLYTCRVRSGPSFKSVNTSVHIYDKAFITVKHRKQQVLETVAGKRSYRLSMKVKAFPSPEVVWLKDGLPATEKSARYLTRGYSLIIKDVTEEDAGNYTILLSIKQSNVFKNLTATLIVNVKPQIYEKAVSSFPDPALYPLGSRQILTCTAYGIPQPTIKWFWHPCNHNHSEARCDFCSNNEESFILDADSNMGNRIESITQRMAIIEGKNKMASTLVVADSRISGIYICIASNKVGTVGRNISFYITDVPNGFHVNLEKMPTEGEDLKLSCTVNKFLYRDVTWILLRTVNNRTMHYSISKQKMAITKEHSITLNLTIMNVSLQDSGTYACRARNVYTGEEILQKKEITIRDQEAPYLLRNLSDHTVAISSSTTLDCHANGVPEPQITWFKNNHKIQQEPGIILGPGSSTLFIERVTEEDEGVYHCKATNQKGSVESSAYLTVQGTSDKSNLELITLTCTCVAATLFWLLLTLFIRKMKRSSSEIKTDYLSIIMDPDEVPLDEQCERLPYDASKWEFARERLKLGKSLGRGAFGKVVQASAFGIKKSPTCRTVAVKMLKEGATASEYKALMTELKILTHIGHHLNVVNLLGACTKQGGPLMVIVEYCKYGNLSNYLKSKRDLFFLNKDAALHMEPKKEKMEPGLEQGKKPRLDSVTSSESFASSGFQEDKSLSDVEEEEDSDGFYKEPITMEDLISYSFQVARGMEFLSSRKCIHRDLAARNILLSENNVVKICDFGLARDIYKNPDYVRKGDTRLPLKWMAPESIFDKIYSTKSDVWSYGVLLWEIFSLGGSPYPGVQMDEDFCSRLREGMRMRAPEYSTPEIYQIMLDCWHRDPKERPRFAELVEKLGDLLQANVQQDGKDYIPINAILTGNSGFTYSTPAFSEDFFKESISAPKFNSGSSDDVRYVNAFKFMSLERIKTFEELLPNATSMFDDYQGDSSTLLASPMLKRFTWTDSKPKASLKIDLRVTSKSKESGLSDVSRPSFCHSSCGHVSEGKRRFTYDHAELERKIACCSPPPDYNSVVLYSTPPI
Experiment: Inhibition of recombinant FLT1 by ELISA
Quantity Measured: IC50

CN1CCN(CCOc2cc(OC3CCOCC3)c3c(Nc4c(Cl)ccc5c4OCO5)ncnc3c2)CC1 [SARACATINIB]    > 100 µM

// switching to the query compound
// IC50 lookup, compound = Clc1ccc2c(c1Nc1ncnc3cc(OCCCN4CCCC4)cc(OC4CCOCC4)c13)OCO2 , result: > 33 µM

* * *

Assay: Half life in rat at 25 mg/kg, po and 2 mg/kg, iv
Assay type: ADME, organism-based
Details: in vivo
Quantity Measured: half-life (min)
Answers are plain numbers, in min.

// half-life lookup, compound = CN1CCN(CCOc2cc(OC3CCOCC3)c3c(Nc4c(Cl)ccc5c4OCO5)ncnc3c2)CC1 , result: 300

* * *

Test: Aqueous solubility at pH 7.0
Format: physicochemical
Quantity Measured: solubility (µM)
Answers are plain numbers, in µM.

// solubility lookup, compound = CN1CCN(CCOc2cc(OC3CCOCC3)c3c(Nc4c(Cl)ccc5c4OCO5)ncnc3c2)CC1 , result: 240

* * *

Molecular target: UniProtKB P11362
Sequence (P11362 whole entry): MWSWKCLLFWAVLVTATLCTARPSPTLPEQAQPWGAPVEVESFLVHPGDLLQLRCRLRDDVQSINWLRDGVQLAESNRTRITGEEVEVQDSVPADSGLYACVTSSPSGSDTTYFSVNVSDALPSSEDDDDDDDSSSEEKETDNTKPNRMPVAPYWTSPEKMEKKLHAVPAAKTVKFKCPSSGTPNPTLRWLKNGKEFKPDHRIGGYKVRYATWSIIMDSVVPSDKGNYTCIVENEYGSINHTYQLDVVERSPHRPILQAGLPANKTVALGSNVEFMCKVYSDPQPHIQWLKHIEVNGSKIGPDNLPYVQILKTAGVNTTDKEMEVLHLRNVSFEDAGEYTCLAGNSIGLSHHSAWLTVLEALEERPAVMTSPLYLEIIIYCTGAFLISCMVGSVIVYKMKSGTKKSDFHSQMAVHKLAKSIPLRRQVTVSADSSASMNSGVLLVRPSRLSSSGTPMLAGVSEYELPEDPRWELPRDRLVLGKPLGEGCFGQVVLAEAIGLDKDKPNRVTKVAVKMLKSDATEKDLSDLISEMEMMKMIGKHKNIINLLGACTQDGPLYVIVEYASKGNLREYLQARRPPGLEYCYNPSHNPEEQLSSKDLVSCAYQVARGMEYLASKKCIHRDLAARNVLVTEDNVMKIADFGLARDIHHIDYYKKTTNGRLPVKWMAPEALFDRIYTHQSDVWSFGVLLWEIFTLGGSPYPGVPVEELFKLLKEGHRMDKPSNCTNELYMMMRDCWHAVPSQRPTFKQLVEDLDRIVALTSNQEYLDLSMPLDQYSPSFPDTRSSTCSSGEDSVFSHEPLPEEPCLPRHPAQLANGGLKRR
Experiment: Inhibition of recombinant FGFR1 by ELISA
Quantity Measured: IC50 (µM)
One number for each entry, in µM.

// IC50 lookup, compound = Clc1ccc2c(c1Nc1ncnc3cc(OCCCN4CCCC4)cc(OC4CCOCC4)c13)OCO2 , result: 37

* * *

Test: Clearance in female rat at 20 mg/kg, po and 2 mg/kg, iv
Assay type: ADME, organism-based
Details: in vivo
Quantity Measured: clearance (mL/min/kg)
One number for each entry, in mL/min/kg.

// clearance lookup, compound = CN1CCC(COc2cc(OC3CCOCC3)c3c(Nc4c(Cl)ccc5c4OCO5)ncnc3c2)CC1 , result: 132

* * *

Assay: Bioavailability in female rat at 20 mg/kg, po and 2 mg/kg, iv
Type: ADME, organism-based
Settings: in vivo
Quantity Measured: bioavailability (%)
Give bare numbers, in %.

// bioavailability lookup, molecule = CN1CCC(COc2cc(OC3CCOCC3)c3c(Nc4c(Cl)ccc5c4OCO5)ncnc3c2)CC1 , result: 93

* * *

Experiment: Half life in male dog
Format: ADME, organism-based, Canis lupus familiaris
Conditions: male, in vivo
Quantity Measured: half-life (h)
Give bare numbers, in h.

CN1CCN(CCOc2cc(OC3CCOCC3)c3c(Nc4c(Cl)ccc5c4OCO5)ncnc3c2)CC1 [SARACATINIB]    7

// switching to the query molecule
// half-life lookup, molecule = Clc1ccc2c(c1Nc1ncnc3cc(OCCCN4CCCC4)cc(OC4CCOCC4)c13)OCO2 , result: 29

* * *

This document collects pIC50 values reported for Vascular endothelial growth factor receptor 2 (Homo sapiens).
Answers are plain numbers, as −log10 of the molar value.

Some solved entries appear below for comparison.
COc1ccc(Cl)c(Nc2ncnc3cc(OCCCN4CCOCC4)cc(OC4CCCCC4)c23)c1    5.26
COc1cc(OC2CCN(C)CC2)c2c(Nc3cccc4c3OCCO4)ncnc2c1    6.30
CC(C)Oc1cc(OCCCN2CCCC2)cc2ncnc(Nc3c(Cl)ccc4c3OCO4)c12    5.92

// switching to the query molecule
The reported pIC50 value, Vascular endothelial growth factor receptor 2 (Homo sapiens), for COc1cc(Oc2ccncc2)c2c(Nc3c(Cl)ccc4c3OCO4)ncnc2c1 reads 4.67

* * *

Assay: Percent of unbound ligand in rat plasma
Assay type: ADME, organism-based
Quantity Measured: fraction unbound
Numbers only.

Some solved entries appear below for comparison.
COc1cc(OC2CCN(C)CC2)c2c(Nc3c(Cl)ccc4c3OCO4)ncnc2c1    0.25
Clc1ccc2c(c1Nc1ncnc3cc(OCCCN4CCCC4)cc(OC4CCOCC4)c13)OCO2    0.16
Clc1ccc2c(c1Nc1ncnc3cc(OCCc4ccncc4)cc(OC4CCOCC4)c13)OCO2    0.017
CC(C)Oc1cc(OCCN2CCOCC2)cc2ncnc(Nc3c(Cl)ccc4c3OCO4)c12    0.025
COc1ccc(Cl)c(Nc2ncnc3cc(OCC4CCN(C)CC4)c(OC)cc23)c1    0.075

// switching to the query molecule
// fraction unbound lookup, molecule = CN1CCN(CCOc2cc(OC3CCOCC3)c3c(Nc4c(Cl)ccc5c4OCO5)ncnc3c2)CC1 , result: 0.13

* * *

pIC50: −log10 of the molar value.
This document collects pIC50 values reported for Vascular endothelial growth factor receptor 3 (Homo sapiens).

Clc1ccc2c(c1Nc1ncnc3cc(OCCCN4CCCC4)cc(OC4CCOCC4)c13)OCO2    < 5.00

// pIC50 lookup, molecule = CN1CCN(CCOc2cc(OC3CCOCC3)c3c(Nc4c(Cl)ccc5c4OCO5)ncnc3c2)CC1 , result: < 5.00

* * *

This document collects IC50 values reported for Proto-oncogene tyrosine-protein kinase Src (Homo sapiens).
Answers are plain numbers, in nM.

Some solved entries appear below for comparison.
COc1ccc(Cl)c(Nc2ncnc3cccc(OC4CCN(C)CC4)c23)c1    300
c1cc(Nc2ncnc3cc(OCCN4CCCC4)cc(OC4CCOCC4)c23)c2c(c1)OCO2    80
COc1ccc(Cl)c(Nc2ncnc3cc(OC)cc(OC)c23)c1    3700

Quick one: give me IC50 for each item below, same order please.
1. COc1cc2c(Nc3c(Cl)ccc4c3OCO4)ncnc2cc1OCCCN1CCCC1
2. c1cc(Nc2ncnc3cc(OCCCN4CCCC4)cc(OC4CCOCC4)c23)c2c(c1)OCO2
3. COc1cc(OCCCN2CCCC2)cc2ncnc(Nc3c(Cl)ccc4c3OCO4)c12
4. CN1CCC(COc2cc(OC3CCOCC3)c3c(Nc4c(Cl)ccc5c4OCO5)ncnc3c2)CC1
5. Clc1ccc2c(c1Nc1ncnc3cc(OCCc4ccncc4)cc(OC4CCOCC4)c13)OCO2
6. Clc1ccc2c(c1Nc1ncnc3cccc(Oc4ccncc4)c13)OCO2
7. CC(C)Oc1cc(OC2CCN(C)CC2)c2c(Nc3c(Cl)ccc4c3OCO4)ncnc2c1
8. COc1ccc(Cl)c(Nc2ncnc3ccc(OCCCN4CCN(C)CC4)c(OC4CCOCC4)c23)c1

[5, 40, 15, 6, 3, 55, 100, 600]

Quick one: give me IC50 for each item below, same order please.
1. Clc1ccc2c(c1Nc1ncnc3cc(OCCN4CCCC4)cc(N4CCOCC4)c13)OCO2
2. CN1CCC(Oc2cccc3ncnc(Nc4c(Cl)ccc5c4OCO5)c23)CC1

[75, 100]
